System: OVCAR-3 ovarian
Test: NCI tumour cell line growth inhibition, 48 h
TEST_READOUT: TGI

INSERT INTO assay_data (compound, result) VALUES
  ('Cn1cc(C2=C(c3cn(CCCCC(=N)N)c4ccccc34)C(=O)NC2=O)c2ccccc21', '> 25 µM'),
  ('CC(=O)[C-](C(C)=O)c1ccccc1.CC(=O)[C-](C(C)=O)c1ccccc1.CC(=O)[C-](C(C)=O)c1ccccc1.[Cl-].[Zr+4]', '> 100 µM'),
  ('CC1=C(N2CC2)C(=O)c2ccccc2C1=O', '2.89 µM'),
  ('COC(=O)C(NC(=O)OC(C)(C)C)P(=O)(OC)OC (centres undefined)', '> 100 µM'),
  ('Cc1ccc(S[C@@H](C)[C@@](O)(C(N)=O)c2ccccc2)cc1', '> 100 µM'),
  ('O=C(CCCCCCCCC(=O)N/N=C\c1cc(Cl)ccc1O)N/N=C\c1cc(Cl)ccc1O', '> 100 µM'),
  ('O=C1CCC(=O)c2sccc2N1', '> 100 µM'),
  ('CCCCCCCCCCSC(=N)N', '13.8 µM'),
  ('CC(=O)OC(=O)O/C=C\CCl', '> 100 µM');

---

System: MDA-N
Test: NCI tumour cell line growth inhibition, 48 h
Listed here are compounds together with their documented TGI.
TEST_READOUT: TGI

INSERT INTO results (compound, target, result) VALUES
  ('O=C(O)c1ccc(N/C(=C(/C(Cl)=C(Cl)Cl)[N+](=O)[O-])n2nnc3ccccc32)cc1', 'MDA-N', '> 100 µM'),
  ('CCCCC[C@H]1CCCCCCCCCC(=O)OC2C(O[C@@H]3OC(C)[C@H](OC(=O)[C@@H](C)CC)C(O[C@@H]4OC(C)[C@H](O)C(O)[C@@H]4O)[C@@H]3OC(=O)[C@H](C)CC)[C@H](OC3C(O)[C@@H](O)C(C)O[C@H]3O1)OC(CO)[C@H]2O (stereo partly specified)', 'MDA-N', '31.4 µM'),
  ('Cc1ccc(S(=NS(=O)(=O)c2ccc(C)cc2)c2ccc(C)cc2)cc1', 'MDA-N', '> 100 µM'),
  ('O=c1[nH]c2ccc([N+](=O)[O-])cc2nc1/C=C(\O)c1ccccc1', 'MDA-N', '> 100 µM'),
  ('CC(C)C(NC(=O)C(Cc1ccccc1)NC(=O)[C@H]1CCC[C@H]1NC(=O)C(Cc1ccc(OC(C)(C)C)cc1)NC(=O)OC(C)(C)C)C(N)=O (stereo partly specified)', 'MDA-N', '35 µM'),
  ('N#C/C(=C\c1ccc2[nH]ccc2c1)C(=O)c1ccc(O)c(O)c1', 'MDA-N', '> 100 µM'),
  ('O=C1C=C(N2CCN(CCOCCO)CC2)C(=O)c2c(O)ccc(O)c21', 'MDA-N', '3.29 µM'),
  ('Cc1ccc(S[C@@H](C)[C@@](O)(C(N)=O)c2ccccc2)cc1', 'MDA-N', '> 100 µM'),
  ('Cn1cc(NC(=O)Nc2cc(C(=O)Nc3cc(C(=O)Nc4cc(S(=O)(=O)O)c5cc(S(=O)(=O)O)cc(S(=O)(=O)O)c5c4)n(C)c3)n(C)c2)cc1C(=O)Nc1cc(C(=O)Nc2cc(S(=O)(=O)O)c3cc(S(=O)(=O)O)cc(S(=O)(=O)O)c3c2)n(C)c1', 'MDA-N', '> 100 µM'),
  ('CCOC(=O)Cn1c(=O)c(C)cn(COCCO)c1=O', 'MDA-N', '> 100 µM'),
  ('CC(=O)OCC1OC(n2c(-c3ccccc3)c(N=Nc3ccc(C)cc3)c(C)c(C#N)c2=S)C(OC(C)=O)C(OC(C)=O)C1OC(C)=O (stereo unspecified)', 'MDA-N', '74.9 µM'),
  ('COC(=O)C(NC(=O)OC(C)(C)C)P(=O)(OC)OC (stereo unspecified)', 'MDA-N', '> 100 µM'),
  ('Cc1cc(Br)cc(C)c1NC(=O)C(=O)Nn1c(=S)[nH]c2ccccc2c1=O', 'MDA-N', '> 100 µM'),
  ('CC(NC(=O)C(Cc1ccc(OC(=O)c2ccccc2)cc1)NC(=O)OC(C)(C)C)C(=O)NCC(=O)NC(Cc1ccccc1)C(=O)NN (stereo unspecified)', 'MDA-N', '> 100 µM'),
  ('CCCOC(=O)C1C2CCC(O2)C1C(=O)O (stereo unspecified)', 'MDA-N', '> 100 µM'),
  ('CCOC(=O)C1=C(C)N(Cc2ccccc2)C2(O)C=CC(=O)C3=C(O)c4ccccc4C(=O)C312 (stereo unspecified)', 'MDA-N', '22.3 µM');

---

Test system: KM12 colon
Experiment: NCI tumour cell line growth inhibition, 48 h
// reported TGI per item
TEST_READOUT: TGI

INSERT INTO measurements (compound, test_readout, result) VALUES
  ('COc1cc2c3c(cc(Cl)nc3c1OC)C(O)(CC(=O)c1ccccc1)C(=O)N2 (stereo not given)', 'TGI', '31.3 µM'),
  ('CCN(CC)Cc1cc(Nc2c3ccccc3nc3cc(Cl)ccc23)ccc1O', 'TGI', '3.77 µM'),
  ('CCN(CC)CCO[Si](OCCN(CC)CC)(OCCN(CC)CC)OCCN(CC)CC', 'TGI', '> 100 µM'),
  ('O=P(O)(O)CN1CCNCCN(CP(=O)(O)O)CC1', 'TGI', '> 100 µM'),
  ('CN(C)CCNC(=O)c1c(O)ccc2c1c1c(n2CCc2ccccc2)C(=O)c2ccccc2C1=O', 'TGI', '15.9 µM'),
  ('COc1cc(C(C#N)NNc2nc(C)cc(=O)[nH]2)cc(OC)c1OC (stereo not given)', 'TGI', '> 100 µM'),
  ('FC(F)(F)c1ccc2nc(Sc3ccc4ccccc4c3)cnc2c1', 'TGI', '> 100 µM'),
  ('COC(=O)/C(=N\Nc1nnc(C)n1N)C(C#N)c1ccccc1 (stereo not given)', 'TGI', '> 100 µM'),
  ('CC(NC(=O)C(Cc1ccc(OC(=O)c2ccccc2)cc1)NC(=O)OC(C)(C)C)C(=O)NCC(=O)NC(Cc1ccccc1)C(=O)NN (stereo not given)', 'TGI', '> 100 µM'),
  ('CC(C)=NOC(=O)Nc1cccc2c1OCO2', 'TGI', '> 100 µM');

---

Test system: OVCAR-4 ovarian
Assay: NCI tumour cell line growth inhibition, 48 h
TEST_READOUT: TGI

INSERT INTO assay_data (compound, test_readout, result) VALUES
  ('CCCN1CCC=C(c2ccc(Nc3nc(Nc4ccccc4C(N)=O)c4cc[nH]c4n3)c(C)c2)C1', 'TGI', '> 25 µM'),
  ('NC(=O)c1ccc(N(C(N)=O)c2c(F)cccc2F)nc1-c1ccc(F)cc1F', 'TGI', '> 100 µM'),
  ('Cc1csc(-n2c(C)nc3cc(Cl)ccc3c2=O)n1', 'TGI', '> 100 µM'),
  ('CC(=O)c1c2c(cc3c1CC1(C3)Cc3cc4c(c(C(=O)O)c3C1)CCC4)CCC2 (stereo not given)', 'TGI', '> 100 µM'),
  ('CC(C)C(NC(=O)C(Cc1ccccc1)NC(=O)[C@H]1CCC[C@H]1NC(=O)C(Cc1ccc(OC(C)(C)C)cc1)NC(=O)OC(C)(C)C)C(N)=O (stereo not given in full)', 'TGI', '65.4 µM'),
  ('CCc1cc(Cc2ccc(C)c(NC(=O)C(=O)C3C(=O)NC(=O)NC3=O)c2CC)cc(C)c1NC(=O)C(=O)C1C(=O)NC(=O)NC1=O', 'TGI', '> 100 µM'),
  ('CCOC(=O)c1c(C)n(Cc2ccccc2)c2c1cc1oc(=O)c(=O)n3cnc2c13', 'TGI', '> 50 µM'),
  ('CC1(C)CC(=O)C2=C(C1)OC1(CC2c2ccc(Cl)cc2)CC(c2ccc(Cl)cc2)C2=C(CC(C)(C)CC2=O)O1 (stereo not given)', 'TGI', '30.6 µM'),
  ('COc1ccc2c(c1)CCC/C2=N\NS(=O)(=O)c1c(C)cc(C)cc1C', 'TGI', '92.7 µM'),
  ('NN/C(=N\S(=O)(=O)c1ccc(S(=O)(=O)c2ccccc2)s1)Nc1ccc(Cl)cc1', 'TGI', '> 100 µM'),
  ('[CH3][Sn]1([CH3])[O]CC(COc2cc(Cl)c(Cl)cc2Cl)[O]1 (stereo not given)', 'TGI', '> 100 µM'),
  ('CCCCCCCCCCSC(=N)N', 'TGI', '17.6 µM'),
  ('Cc1ccc(S[C@@H](C)[C@@](O)(C(N)=O)c2ccccc2)cc1', 'TGI', '46.3 µM'),
  ('O=C1C(c2c(O)[nH]c3ccc(S(=O)(=O)NCCO)cc23)=Nc2ccccc21', 'TGI', '14.5 µM'),
  ('Cc1ccc(/C=C2\N=C(N3CCCC(CO)C3)NC2=O)cc1 (stereo not given)', 'TGI', '> 100 µM'),
  ('Cc1cc(Br)cc(C)c1NC(=O)C(=O)Nn1c(=S)[nH]c2ccccc2c1=O', 'TGI', '> 100 µM'),
  ('C=CCNC(=S)/N=C/C(C(=O)Nc1ccccc1C)=C(\C)O', 'TGI', '> 100 µM'),
  ('CC(C(N)=O)N(C)C(=O)c1cnc2ccccc2c1 (stereo not given)', 'TGI', '> 100 µM'),
  ('CCCOC(=O)C1C2CCC(O2)C1C(=O)O (stereo not given)', 'TGI', '> 100 µM'),
  ('CCCCC[C@H]1CCCCCCCCCC(=O)OC2C(O[C@@H]3OC(C)[C@H](OC(=O)[C@@H](C)CC)C(O[C@@H]4OC(C)[C@H](O)C(O)[C@@H]4O)[C@@H]3OC(=O)[C@H](C)CC)[C@H](OC3C(O)[C@@H](O)C(C)O[C@H]3O1)OC(CO)[C@H]2O (stereo not given in full)', 'TGI', '36.3 µM'),
  ('CCOC(=O)Cn1c(=O)c(C)cn(COCCO)c1=O', 'TGI', '> 100 µM'),
  ('COC(=O)C(NC(=O)OC(C)(C)C)P(=O)(OC)OC (stereo not given)', 'TGI', '> 100 µM'),
  ('N#C/C(=C\c1ccc2[nH]ccc2c1)C(=O)c1ccc(O)c(O)c1', 'TGI', '> 100 µM'),
  ('COC1CC(OC2C(C)OC(OC3C(C)OC(OC4C(C)OC(O[C@H]5CC[C@@]6(C)C(=CC[C@]7(O)[C@@H]6C[C@@H](O)[C@@]6(C)[C@]7(O)CC[C@@]6(O)C(C)=O)C5)CC4OC)CC3OC)CC2OC)OC(C)C1O (stereo not given in full)', 'TGI', '> 12.5 µM'),
  ('C=CC(C)(O)CC/C=C(\CO)C(=O)OC1C(C)OC(O[C@](C)(C=C)CC/C=C(\CO)C(=O)O[C@H]2C[C@@]3(C(=O)OC4OC(CO)C(O)C(O)C4OC4OC(C)C(OC5OC(CO)C(O)C5O)C(OC5OC(CO)C(O)C(O)C5O)C4O)C(CC2(C)C)C2=CCC4[C@@]5(C)CC[C@H](OC6OC(COC7OC(C)C(O)C(O)C7OC7OCC(O)C(O)C7O)C(O)C(O)C6NC(C)=O)C(C)(C)C5CC[C@@]4(C)[C@]2(C)C[C@H]3O)C(O)C1O (stereo not given in full)', 'TGI', '0.47 µM'),
  ('CC/C(N)=N\NC(=O)OC(C)(C)C', 'TGI', '> 100 µM'),
  ('O=c1[nH]cc(C(F)(C(F)(F)F)C(F)(F)F)c(=O)[nH]1', 'TGI', '> 100 µM'),
  ('CCN(CC)CCO[Si](OCCN(CC)CC)(OCCN(CC)CC)OCCN(CC)CC', 'TGI', '> 100 µM'),
  ('CC(N1CCOCC1)C(O)(c1ccccc1)c1ccccn1 (stereo not given)', 'TGI', '> 100 µM'),
  ('NS(=O)(=O)c1ccc(NC(=O)c2cccc(NC3=C(Cl)C(=O)N(Cc4ccccc4)C3=O)c2)cc1', 'TGI', '> 100 µM'),
  ('COC(=O)c1cc(/C=C\c2cc(OC)ccc2OC)ccc1OC', 'TGI', '> 100 µM'),
  ('Cc1cc(Nc2nc(-c3ccncc3)nc3ccccc23)n[nH]1', 'TGI', '> 100 µM'),
  ('O=C(Nc1ccc(Cl)cc1)c1cc(S(=O)(=O)Nc2n[nH]c(=O)n2-c2ccccc2)c(S)cc1Cl', 'TGI', '> 100 µM'),
  ('O=C(c1ccc2ccccc2c1)c1c(C(F)(F)F)n([O-])c2ccc(F)cc2[n+]1=O', 'TGI', '3.22 µM'),
  ('Cc1ccc2c(c1C)C(=O)/C(=C/c1cccc(C)c1C(=O)O)C2', 'TGI', '> 100 µM');
